- Test system: hen egg lysozyme, P00698
- Sequence (P00698 19-147): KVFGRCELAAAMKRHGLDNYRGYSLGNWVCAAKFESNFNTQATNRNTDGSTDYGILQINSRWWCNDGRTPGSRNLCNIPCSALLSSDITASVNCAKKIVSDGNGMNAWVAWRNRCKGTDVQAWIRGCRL
- Measurement protocol: ELISA
- Run conditions: chain shown with the change;; parent: est. 0.92; read off a plot
Recorded metric: EC50 (µg/mL)

(I) anti-lysozyme VHH D3-L11, wild type A79R (protein) DVQLVESGGGSVQAGGSLRLSCAASGSTDSIEYMTWFRQAPGKAREGVAALYTHTGNTYYTDSVKGRFTISQDKAKNMRYLRMDSVKSEDTAIYTCGATRKYVPVRFALDQSSYDYWGQGTQVTVSS
(II) anti-lysozyme VHH D3-L11, wild type A79H (protein) DVQLVESGGGSVQAGGSLRLSCAASGSTDSIEYMTWFRQAPGKAREGVAALYTHTGNTYYTDSVKGRFTISQDKAKNMHYLRMDSVKSEDTAIYTCGATRKYVPVRFALDQSSYDYWGQGTQVTVSS
Dear colleague, could you let me know whether I or II has the lower recorded EC50? Thanks. Please identify the chosen entry by its label.
I
(I: 31 µg/mL, II: 120 µg/mL)

Ref: paper PMC10039853
